- System: Escherichia coli
- assayDetails: Inhibition of LuxR-dependent quorum sensing activity in Escherichia coli MT102 harboring pJBA132 assessed as inhibition of OHHL-induced GFP expression at 1 mM measured after 8 hrs by fluorescence assay relative to control
parameterMeasured: inhibition (%)
Supply the numeric figure in %, leaving out any unit text.

Input line: Any idea what inhibition came out for "CCCCCC(=O)N[C@@H]1[C@@H](O)[C@H](O)[C@@H](CO)O[C@H]1O" on Escherichia coli?
Output line: 10.7

Input line: Any idea what inhibition came out for "CC(=O)OC[C@H]1O[C@@H](OC(C)=O)[C@H](NC(=O)CC(=O)CCCc2ccccc2)[C@@H](OC(C)=O)[C@@H]1OC(C)=O" on Escherichia coli?
Output line: 26

Input line: Any idea what inhibition came out for "CCCC(=O)CC(=O)N[C@H]1[C@H](OC(C)=O)O[C@H](COC(C)=O)[C@@H](OC(C)=O)[C@@H]1OC(C)=O" on Escherichia coli?
Output line: 85.4

Input line: Any idea what inhibition came out for "O=C(Cc1ccc(Br)cc1)N[C@@H]1[C@@H](O)[C@H](O)[C@@H](CO)O[C@H]1O" on Escherichia coli?
Output line: 6.5

Input line: Any idea what inhibition came out for "CC(=O)OC[C@H]1O[C@@H](OC(C)=O)[C@H](NC(=O)Cc2ccc(Cl)cc2)[C@@H](OC(C)=O)[C@@H]1OC(C)=O" on Escherichia coli?
Output line: 4.2

Input line: Any idea what inhibition came out for "O=C(Cc1ccc(Cl)cc1)N[C@@H]1[C@@H](O)[C@H](O)[C@@H](CO)O[C@H]1O" on Escherichia coli?
Output line: 2

Input line: Any idea what inhibition came out for "CC(=O)OC[C@H]1O[C@@H](OC(C)=O)[C@H](NC(=O)Cc2ccc(Br)cc2)[C@@H](OC(C)=O)[C@@H]1OC(C)=O" on Escherichia coli?
Output line: 5.1

Input line: Any idea what inhibition came out for "O=C(Cc1ccc(F)cc1)N[C@@H]1[C@@H](O)[C@H](O)[C@@H](CO)O[C@H]1O" on Escherichia coli?
Output line: 3.6

Input line: Any idea what inhibition came out for "CCCCCCCCCCCC(=O)N[C@@H]1[C@@H](O)[C@H](O)[C@@H](CO)O[C@H]1O" on Escherichia coli?
Output line: 4.6

Input line: Any idea what inhibition came out for "CCCC(=O)N[C@@H]1[C@@H](O)[C@H](O)[C@@H](CO)O[C@H]1O" on Escherichia coli?
Output line: 92.7

Input line: Any idea what inhibition came out for "CCCCCCCCCC(=O)N[C@@H]1[C@@H](O)[C@H](O)[C@@H](CO)O[C@H]1O" on Escherichia coli?
Output line: 16.3

Input line: Any idea what inhibition came out for "O=C(CCCc1ccccc1)N[C@@H]1[C@@H](O)[C@H](O)[C@@H](CO)O[C@H]1O" on Escherichia coli?
Output line: 43.4

Input line: Any idea what inhibition came out for "CC(=O)OC[C@H]1O[C@@H](OC(C)=O)[C@H](NC(=O)CCCc2ccccc2)[C@@H](OC(C)=O)[C@@H]1OC(C)=O" on Escherichia coli?
Output line: 18.1

Input line: Any idea what inhibition came out for "COc1ccc(CC(=O)N[C@@H]2[C@@H](O)[C@H](O)[C@@H](CO)O[C@H]2O)cc1" on Escherichia coli?
Output line: 10.1

Input line: Any idea what inhibition came out for "CC(=O)OC[C@H]1O[C@@H](OC(C)=O)[C@H](NC(=O)CCc2c[nH]c3ccccc23)[C@@H](OC(C)=O)[C@@H]1OC(C)=O" on Escherichia coli?
Output line: 2.3

Input line: Any idea what inhibition came out for "CC(=O)OC[C@H]1O[C@@H](OC(C)=O)[C@H](NC(=O)Cc2ccc(C(F)(F)F)cc2)[C@@H](OC(C)=O)[C@@H]1OC(C)=O" on Escherichia coli?
Output line: 13

Input line: Any idea what inhibition came out for "CC(=O)OC[C@H]1O[C@@H](OC(C)=O)[C@H](NC(=O)Cc2ccc(F)cc2)[C@@H](OC(C)=O)[C@@H]1OC(C)=O" on Escherichia coli?
Output line: 14

Input line: Any idea what inhibition came out for CC(=O)N[C@@H]1[C@@H](O)[C@H](O)[C@@H](CO)O[C@H]1O [N-ACETYLGLUCOSAMINE] on Escherichia coli?
Output line: 85

Input line: Any idea what inhibition came out for "CCCC(=O)N[C@H]1[C@H](OC(C)=O)O[C@H](COC(C)=O)[C@@H](OC(C)=O)[C@@H]1OC(C)=O" on Escherichia coli?
Output line: 21.9

Input line: Any idea what inhibition came out for "CCCCCC(=O)N[C@H]1[C@H](OC(C)=O)O[C@H](COC(C)=O)[C@@H](OC(C)=O)[C@@H]1OC(C)=O" on Escherichia coli?
Output line: 14.6

Input line: Any idea what inhibition came out for "CCCCCCCC(=O)N[C@H]1[C@H](OC(C)=O)O[C@H](COC(C)=O)[C@@H](OC(C)=O)[C@@H]1OC(C)=O" on Escherichia coli?
Output line: 2.3

Input line: Any idea what inhibition came out for "CCCCCC(=O)CC(=O)N[C@H]1[C@H](OC(C)=O)O[C@H](COC(C)=O)[C@@H](OC(C)=O)[C@@H]1OC(C)=O" on Escherichia coli?
Output line: 2.1

Input line: Any idea what inhibition came out for "O=C(Cc1ccc(C(F)(F)F)cc1)N[C@@H]1[C@@H](O)[C@H](O)[C@@H](CO)O[C@H]1O" on Escherichia coli?
Output line: 10.1

====

I'd appreciate it if you could supply inhibition at 1000 µM values for the items below.
- Test system: Escherichia coli
- assayDetails: Growth inhibition of Escherichia coli MT102 at 1 mM after 8 hrs relative to control
- conditionsUsed: MT102, 8 h, read-out: GI
Record the result as number plus unit.

Input line: Please report the recorded inhibition at 1000 µM for "CCCC(=O)N[C@@H]1[C@@H](O)[C@H](O)[C@@H](CO)O[C@H]1O" .
Output line: 34.5%

Input line: Please report the recorded inhibition at 1000 µM for "CCCCCC(=O)N[C@H]1[C@H](OC(C)=O)O[C@H](COC(C)=O)[C@@H](OC(C)=O)[C@@H]1OC(C)=O" .
Output line: 16.9%

Input line: Please report the recorded inhibition at 1000 µM for "CC(=O)OC[C@H]1O[C@@H](OC(C)=O)[C@H](NC(=O)CCc2c[nH]c3ccccc23)[C@@H](OC(C)=O)[C@@H]1OC(C)=O" .
Output line: 0%

Input line: Please report the recorded inhibition at 1000 µM for "CCCCCCCCCC(=O)N[C@H]1[C@H](OC(C)=O)O[C@H](COC(C)=O)[C@@H](OC(C)=O)[C@@H]1OC(C)=O" .
Output line: 0%

Input line: Please report the recorded inhibition at 1000 µM for "COc1ccc(CC(=O)N[C@@H]2[C@@H](O)[C@H](O)[C@@H](CO)O[C@H]2O)cc1" .
Output line: 0%

Input line: Please report the recorded inhibition at 1000 µM for "O=C(Cc1ccc(F)cc1)N[C@@H]1[C@@H](O)[C@H](O)[C@@H](CO)O[C@H]1O" .
Output line: 0%

Input line: Please report the recorded inhibition at 1000 µM for "O=C(CCCc1ccccc1)N[C@@H]1[C@@H](O)[C@H](O)[C@@H](CO)O[C@H]1O" .
Output line: 0%

Input line: Please report the recorded inhibition at 1000 µM for "CC(=O)OC[C@H]1O[C@@H](OC(C)=O)[C@H](NC(=O)Cc2c[nH]c3ccccc23)[C@@H](OC(C)=O)[C@@H]1OC(C)=O" .
Output line: 0%

Input line: Please report the recorded inhibition at 1000 µM for "CC(=O)OC[C@H]1O[C@@H](OC(C)=O)[C@H](NC(=O)Cc2ccc(Cl)cc2)[C@@H](OC(C)=O)[C@@H]1OC(C)=O" .
Output line: 0%

Input line: Please report the recorded inhibition at 1000 µM for "O=C(Cc1ccc(Br)cc1)N[C@@H]1[C@@H](O)[C@H](O)[C@@H](CO)O[C@H]1O" .
Output line: 0%

Input line: Please report the recorded inhibition at 1000 µM for "CCCC(=O)CC(=O)N[C@H]1[C@H](OC(C)=O)O[C@H](COC(C)=O)[C@@H](OC(C)=O)[C@@H]1OC(C)=O" .
Output line: 44.1%

Input line: Please report the recorded inhibition at 1000 µM for "CC(=O)N[C@@H]1[C@@H](O)[C@H](O)[C@@H](CO)O[C@H]1O" .
Output line: 7.8%

Input line: Please report the recorded inhibition at 1000 µM for "CC(=O)OC[C@H]1O[C@@H](OC(C)=O)[C@H](NC(=O)Cc2ccc(Br)cc2)[C@@H](OC(C)=O)[C@@H]1OC(C)=O" .
Output line: 0%

Input line: Please report the recorded inhibition at 1000 µM for "CC(=O)OC[C@H]1O[C@@H](OC(C)=O)[C@H](NC(=O)Cc2ccc(F)cc2)[C@@H](OC(C)=O)[C@@H]1OC(C)=O" .
Output line: 0%

Input line: Please report the recorded inhibition at 1000 µM for "COc1ccc(CC(=O)N[C@H]2[C@H](OC(C)=O)O[C@H](COC(C)=O)[C@@H](OC(C)=O)[C@@H]2OC(C)=O)cc1" .
Output line: 0%

Input line: Please report the recorded inhibition at 1000 µM for "CCCCCCCCCC(=O)N[C@@H]1[C@@H](O)[C@H](O)[C@@H](CO)O[C@H]1O" .
Output line: 45%

Input line: Please report the recorded inhibition at 1000 µM for "CCCC(=O)N[C@H]1[C@H](OC(C)=O)O[C@H](COC(C)=O)[C@@H](OC(C)=O)[C@@H]1OC(C)=O" .
Output line: 0%
